assay_target: Proto-oncogene tyrosine-protein kinase Src (Homo sapiens, UniProt P12931)
Sequence (P12931 2-536 limits assumed): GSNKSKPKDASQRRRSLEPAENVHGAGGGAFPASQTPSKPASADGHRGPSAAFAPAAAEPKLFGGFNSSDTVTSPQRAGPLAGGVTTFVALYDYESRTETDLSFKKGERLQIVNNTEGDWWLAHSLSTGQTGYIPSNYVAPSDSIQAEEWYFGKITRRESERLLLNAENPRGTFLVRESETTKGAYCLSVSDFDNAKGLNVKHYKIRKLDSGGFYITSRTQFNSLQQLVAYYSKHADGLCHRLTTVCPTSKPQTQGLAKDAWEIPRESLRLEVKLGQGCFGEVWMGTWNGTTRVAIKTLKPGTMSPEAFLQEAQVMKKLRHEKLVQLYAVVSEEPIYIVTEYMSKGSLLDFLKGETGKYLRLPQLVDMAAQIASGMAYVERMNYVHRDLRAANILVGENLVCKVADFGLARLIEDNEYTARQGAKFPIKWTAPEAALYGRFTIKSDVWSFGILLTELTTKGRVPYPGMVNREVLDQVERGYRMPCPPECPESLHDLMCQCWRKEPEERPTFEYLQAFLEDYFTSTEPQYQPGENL
procedure_details: Inhibition of recombinant full-length human SRC using KVEKIGEGTYGVVYK as substrate measured after 40 mins in presence of [gamma33P]ATP by scintillation counting analysis
quantity: IC50 (nM)
Numbers only here, please. The scale is nM.

query: Sample COc1cc2cn[nH]c2cc1-c1ccc(F)c2c(N)c(C(N)=O)cnc12 — what was its IC50?
result: 903

###

procedure_details: Clearance in Sprague-Dawley rat at 2 mg/kg, iv by LC-MS/MS analysis
Type: ADME, organism-based
assay_setup: in vivo
quantity: clearance
Enter the number, and then the unit.

query: Sample COc1cc2cn[nH]c2cc1-c1ccc(F)c2c(N)c(C(N)=O)cnc12 — what was its clearance?
result: 20.8 mL/min/kg

###

assay_target: UniProtKB P00533
Sequence (P00533 whole entry, the tested form may be a part): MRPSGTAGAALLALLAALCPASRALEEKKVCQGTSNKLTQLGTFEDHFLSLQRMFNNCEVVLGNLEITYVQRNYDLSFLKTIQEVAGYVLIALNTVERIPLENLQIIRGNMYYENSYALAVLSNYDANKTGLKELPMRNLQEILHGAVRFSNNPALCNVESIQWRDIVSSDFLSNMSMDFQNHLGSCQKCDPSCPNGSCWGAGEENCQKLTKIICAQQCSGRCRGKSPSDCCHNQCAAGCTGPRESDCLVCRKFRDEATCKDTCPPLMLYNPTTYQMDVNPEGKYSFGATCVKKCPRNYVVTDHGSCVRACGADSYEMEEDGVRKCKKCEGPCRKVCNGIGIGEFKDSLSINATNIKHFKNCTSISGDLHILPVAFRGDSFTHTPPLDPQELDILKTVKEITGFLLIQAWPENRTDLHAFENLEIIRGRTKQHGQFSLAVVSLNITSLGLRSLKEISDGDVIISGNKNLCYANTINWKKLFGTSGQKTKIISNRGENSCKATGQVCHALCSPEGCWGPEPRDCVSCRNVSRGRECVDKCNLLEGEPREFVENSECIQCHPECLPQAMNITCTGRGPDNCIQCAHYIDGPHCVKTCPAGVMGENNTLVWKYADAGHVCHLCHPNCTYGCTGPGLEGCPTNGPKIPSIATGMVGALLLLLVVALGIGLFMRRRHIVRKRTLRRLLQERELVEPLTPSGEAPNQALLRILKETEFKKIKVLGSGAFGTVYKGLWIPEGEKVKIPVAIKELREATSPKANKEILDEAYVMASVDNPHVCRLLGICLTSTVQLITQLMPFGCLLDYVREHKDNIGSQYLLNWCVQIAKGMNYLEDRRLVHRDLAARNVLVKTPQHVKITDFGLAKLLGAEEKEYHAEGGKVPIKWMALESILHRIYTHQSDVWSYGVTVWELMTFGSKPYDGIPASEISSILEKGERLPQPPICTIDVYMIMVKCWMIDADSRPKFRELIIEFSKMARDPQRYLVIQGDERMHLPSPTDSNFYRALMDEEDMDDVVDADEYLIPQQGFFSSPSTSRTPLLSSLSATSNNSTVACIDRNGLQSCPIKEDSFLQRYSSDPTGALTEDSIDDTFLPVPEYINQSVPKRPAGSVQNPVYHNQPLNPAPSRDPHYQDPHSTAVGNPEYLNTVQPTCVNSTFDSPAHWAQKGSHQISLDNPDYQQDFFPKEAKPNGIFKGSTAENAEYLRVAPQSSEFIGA
procedure_details: Inhibition of recombinant human GST-tagged EGFR cytoplasmic domain (668 to 1210 residues) expressed in baculovirus expression system using Z'-lyte-labelled tyr-4 peptide as substrate measured after 1 hr by FRET assay
quantity: IC50

query: Identify the measured IC50 of COc1cc2cn[nH]c2cc1-c1ccc(F)c2c(N)c(C(N)=O)cnc12 for UniProtKB P00533.
result: > 2 µM

###

procedure_details: Stability in Beagle dog plasma assessed as parent compound remaining at 1 uM measured after 2 hrs by LC-MS/MS analysis
Assay type: ADME, cell-free, Canis lupus familiaris
assay_setup: read-out: Stability
quantity: remaining at 2 h, 1 µM (%)
Numbers only here, please. The scale is %.

query: Sample COc1cc2cn[nH]c2cc1-c1ccc(F)c2c(N)c(C(N)=O)cnc12 — what was its remaining at 2 h, 1 µM?
result: 88

###

procedure_details: Stability in monkey plasma assessed as parent compound remaining at 1 uM measured after 2 hrs by LC-MS/MS analysis
Format: ADME, cell-free, Macaca mulatta
assay_setup: rhesus monkey, read-out: Stability
quantity: remaining at 2 h, 1 µM (%)
Numbers only here, please. The scale is %.

query: Sample COc1cc2cn[nH]c2cc1-c1ccc(F)c2c(N)c(C(N)=O)cnc12 — what was its remaining at 2 h, 1 µM?
result: 88
